assay-system: human α1B‐adrenoceptor (Homo sapiens)
Construct: expressed in transfected cells; host or cells: CHO-K1
Sequence (P35368 1-520): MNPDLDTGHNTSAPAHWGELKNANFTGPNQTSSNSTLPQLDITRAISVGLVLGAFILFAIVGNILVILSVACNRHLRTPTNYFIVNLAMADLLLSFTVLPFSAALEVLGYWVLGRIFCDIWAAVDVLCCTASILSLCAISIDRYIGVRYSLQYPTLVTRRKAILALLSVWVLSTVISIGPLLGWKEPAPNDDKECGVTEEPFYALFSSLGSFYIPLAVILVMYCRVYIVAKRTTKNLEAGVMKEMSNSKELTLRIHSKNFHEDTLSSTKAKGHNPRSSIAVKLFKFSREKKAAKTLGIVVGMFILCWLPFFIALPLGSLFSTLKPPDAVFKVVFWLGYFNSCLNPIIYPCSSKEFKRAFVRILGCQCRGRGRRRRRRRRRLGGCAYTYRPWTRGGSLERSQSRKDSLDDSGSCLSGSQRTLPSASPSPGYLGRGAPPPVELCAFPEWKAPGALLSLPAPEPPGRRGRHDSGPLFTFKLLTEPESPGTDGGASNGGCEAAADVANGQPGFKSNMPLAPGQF
method: ^3H‐cAMP accumulation, CHO‐α1B cells
Type: cell-based
condition-info: CHO‐α1B cells; read-out: cAMP accumulation Log EC50 (converted)
Overview of recorded log10 EC50 for various compounds
On a log10 scale: recorded EC50, unit nM.

Identify measured log10 EC50 corresponding to Clc1ccc2nsnc2c1NC1=NCCN1 [Tizanidine]
2.85

Identify measured log10 EC50 corresponding to c1ccc(C2CC2)c(OCC2=NCCN2)c1 [Cirazoline]
2.08

Identify measured log10 EC50 corresponding to Brc1c(NC2=NCCN2)ccc2nccnc12 [Brimonidine]
2.11

Identify measured log10 EC50 corresponding to Cc1cccc([C@H](C)c2cnc[nH]2)c1C [Dexmedetomidine]
1.95

Identify measured log10 EC50 corresponding to c1ccc2c(CC3=NCCN3)cccc2c1 [Naphazoline]
1.11

Identify measured log10 EC50 corresponding to Clc1cccc(Cl)c1N=C1NCCN1 [Clonidine]
2.40

Identify measured log10 EC50 corresponding to Brc1c(NC2=NCCN2)ccc2nccnc12 [UK14304]
1.98

Identify measured log10 EC50 corresponding to Cc1cccc(C(C)c2cnc[nH]2)c1C (stereo not drawn) [Medetomidine]
2.06

Identify measured log10 EC50 corresponding to N=C(N)NC(=O)Cc1c(Cl)cccc1Cl [Guanfacine]
3.21

====

assay-system: human α1B‐adrenoceptor (Homo sapiens, UniProt P35368)
Construct: expressed in transfected cells; host or cells: CHO-K1
method: ^3H‐cAMP accumulation in the presence of 10 μM forskolin, CHO‐α1B cells
Format: cell-based
condition-info: CHO‐α1B cells; in presence of forskolin; read-out: cAMP accumulation (in presence of forskolin) Log EC50 (converted)
Class membership depends on EC50 alone; the intervals are L (below 90 nM), M (90 nM to below 300 nM), H (300 nM or more)

Example cases with answers are listed next.
C[C@H](N)[C@H](O)c1cccc(O)c1	H
COc1ccc(OC)c(C(O)C(C)N)c1 (stereo not shown)	H

// bin(item) where item = Cc1cccc(C(C)c2cnc[nH]2)c1C (stereo not shown)
M

// bin(item) where item = Brc1c(NC2=NCCN2)ccc2nccnc12 [Brimonidine]
M

// bin(item) where item = Clc1ccc2nsnc2c1NC1=NCCN1
M

// bin(item) where item = c1ccc2c(CC3=NCCN3)cccc2c1
L

// bin(item) where item = c1ccc(C2CC2)c(OCC2=NCCN2)c1
L

// bin(item) where item = CCNCC(O)c1cccc(O)c1 (stereo not shown)
H

// bin(item) where item = Brc1c(NC2=NCCN2)ccc2nccnc12 [UK14304]
M

// bin(item) where item = N=C(N)NC(=O)Cc1c(Cl)cccc1Cl
H

// bin(item) where item = CC(CCc1ccc(O)cc1)NCCc1ccc(O)c(O)c1 (stereo not shown)
H

// bin(item) where item = Cc1cccc([C@H](C)c2cnc[nH]2)c1C
L

// bin(item) where item = Clc1cccc(Cl)c1N=C1NCCN1
L

====

Overview of recorded ERK1/2‐phosphorylation Log EC50 for various molecules
assay-system: human α1A‐adrenoceptor (Homo sapiens, UniProt P35348)
Construct: expressed in transfected cells; host or cells: CHO-K1
Sequence (P35348 1-466): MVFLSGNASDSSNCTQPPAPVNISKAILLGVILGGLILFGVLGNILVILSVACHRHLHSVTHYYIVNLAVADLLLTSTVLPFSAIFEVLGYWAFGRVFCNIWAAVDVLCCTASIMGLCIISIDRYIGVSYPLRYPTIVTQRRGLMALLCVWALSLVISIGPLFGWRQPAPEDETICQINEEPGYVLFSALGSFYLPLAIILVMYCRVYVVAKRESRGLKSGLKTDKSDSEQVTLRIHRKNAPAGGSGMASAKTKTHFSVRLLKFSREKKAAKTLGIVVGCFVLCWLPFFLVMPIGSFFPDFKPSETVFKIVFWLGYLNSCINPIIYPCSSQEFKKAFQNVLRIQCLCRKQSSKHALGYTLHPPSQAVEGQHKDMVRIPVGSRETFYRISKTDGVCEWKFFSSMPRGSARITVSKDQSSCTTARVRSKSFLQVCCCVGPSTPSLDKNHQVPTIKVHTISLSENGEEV
method: ERK1/2‐phosphorylation (Surefire Alphascreen), CHO‐α1A cells
Type: cell-based
Respond using a number only.

Study these solved cases before continuing.
C=CCN1CCc2nc(N)sc2CC1	−5.14
CCC1(C2=NCCN2)Cc2ccccc2O1 (stereo not shown)	−6.12

As a next step, examine the molecule that follows.
Give ERK1/2‐phosphorylation Log EC50 for this entry on human α1A‐adrenoceptor (Homo sapiens, UniProt P35348): O=C1CCC(=O)N1C[C@H]1CC[C@H]2CN(c3ncccn3)CCN2C1 [Sunepitrion]
−5.96

====

assay-system: human α1A‐adrenoceptor (Homo sapiens)
Construct: expressed in transfected cells; host or cells: CHO-K1
Sequence (P35348 1-466): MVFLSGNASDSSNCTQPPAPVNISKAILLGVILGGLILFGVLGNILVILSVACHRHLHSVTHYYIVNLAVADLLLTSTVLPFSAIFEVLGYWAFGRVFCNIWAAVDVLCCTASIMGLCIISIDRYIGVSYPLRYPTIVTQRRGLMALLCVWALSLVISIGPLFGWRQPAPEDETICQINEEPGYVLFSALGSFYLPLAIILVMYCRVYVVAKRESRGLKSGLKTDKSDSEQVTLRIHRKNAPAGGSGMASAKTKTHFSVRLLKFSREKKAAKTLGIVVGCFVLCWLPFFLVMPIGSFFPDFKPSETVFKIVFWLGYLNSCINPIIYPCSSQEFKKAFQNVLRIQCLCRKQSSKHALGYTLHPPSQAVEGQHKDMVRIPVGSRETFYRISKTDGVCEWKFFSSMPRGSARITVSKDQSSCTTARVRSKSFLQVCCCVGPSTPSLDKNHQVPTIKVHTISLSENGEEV
method: Intracellular free calcium mobilization, CHO‐α1A cells
Assay type: cell-based
condition-info: CHO‐α1A cells; given as log EC50 (negative); read-out: Intracellular calcium release Log EC50 (converted)
experimental-readout: EC50 (nM)
Please give a number only; it is taken to be in nM.

Identify measured EC50 corresponding to Brc1c(NC2=NCCN2)ccc2nccnc12 [UK14304]
67.6

Identify measured EC50 corresponding to C1COC(NC(C2CC2)C2CC2)=N1
2090

Identify measured EC50 corresponding to Clc1ccc2nsnc2c1NC1=NCCN1
36.3

Identify measured EC50 corresponding to C[C@H](N)[C@H](O)c1cccc(O)c1
61.7

Identify measured EC50 corresponding to COc1ccc(OC)c(C(O)C(C)N)c1 (stereo not drawn)
8.71

Identify measured EC50 corresponding to COc1nc(C)nc(Cl)c1N=C1NCCN1
309

Identify measured EC50 corresponding to CCNCC(O)c1cccc(O)c1 (stereo not drawn)
77.6

Identify measured EC50 corresponding to CCC1(c2cnc[nH]2)Cc2ccccc2C1
245

Identify measured EC50 corresponding to c1ccc(C2CC2)c(OCC2=NCCN2)c1
0.661

====

assay-system: human α1B‐adrenoceptor (Homo sapiens)
Construct: expressed in transfected cells; host or cells: CHO-K1
Sequence (P35368 1-520): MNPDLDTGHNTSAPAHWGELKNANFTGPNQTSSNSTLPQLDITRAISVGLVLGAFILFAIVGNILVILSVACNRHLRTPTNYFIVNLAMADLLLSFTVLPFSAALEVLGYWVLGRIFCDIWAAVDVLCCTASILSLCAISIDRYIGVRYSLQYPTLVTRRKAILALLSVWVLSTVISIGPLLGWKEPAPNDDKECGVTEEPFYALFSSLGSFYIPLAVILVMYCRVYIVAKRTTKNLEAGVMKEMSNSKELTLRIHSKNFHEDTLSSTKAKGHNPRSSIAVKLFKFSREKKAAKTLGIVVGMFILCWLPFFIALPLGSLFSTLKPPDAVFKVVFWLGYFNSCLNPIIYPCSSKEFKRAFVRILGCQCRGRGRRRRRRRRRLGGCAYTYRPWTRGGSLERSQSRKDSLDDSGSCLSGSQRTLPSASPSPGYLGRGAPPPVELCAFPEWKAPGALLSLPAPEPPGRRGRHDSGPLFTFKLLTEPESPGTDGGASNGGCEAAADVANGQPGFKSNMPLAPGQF
method: Intracellular free calcium mobilization, CHO‐α1B cells
Assay type: cell-based
Overview of recorded Log efficacy ratio KD /EC50 for various compounds
Respond using a number only.

Brc1c(NC2=NCCN2)ccc2nccnc12 [UK14304]	2.26

Identify measured Log efficacy ratio KD /EC50 corresponding to Cc1cccc(C(C)c2cnc[nH]2)c1C (stereo not shown)
2.09

Identify measured Log efficacy ratio KD /EC50 corresponding to Brc1c(NC2=NCCN2)ccc2nccnc12 [Brimonidine]
2.33

Identify measured Log efficacy ratio KD /EC50 corresponding to Cc1cccc(C)c1N=C1NCCCS1
2.11

Identify measured Log efficacy ratio KD /EC50 corresponding to C=CCc1ccccc1OC(C)C1=NCCN1 (stereo not shown)
1.99

Identify measured Log efficacy ratio KD /EC50 corresponding to Cc1cccc([C@H](C)c2cnc[nH]2)c1C
2.29
